Parameter Specific Index (SI) for cell lines HBL100: see the listing below.
Test system: HBL100
MEASUREMENT DESCRIPTION: three day MTT cytotoxicity assay, HBL100
Format: cell-based, human
PROTOCOL CONDITIONS: ratio of IC50 of NIH 3T3 cells to HBL100

Below are worked cases with known answers.
{"COMPOUND": "C=C(C)[C@@H]1CC[C@]2(C(=O)NCC(=O)O)CC[C@]3(C)C(CCC4[C@@]5(C)Cc6c([nH]c7ccc(Cl)cc67)C(C)(C)C5CC[C@]43C)C12 (stereo partly drawn) [Compound 24]", "VAL": 0.679}
{"COMPOUND": "CC(C)[C@@H]1CC[C@]2(C(=O)O)CC[C@]3(C)[C@H](CC[C@@H]4[C@@]5(C)Cc6c([nH]c7ccc(F)cc67)C(C)(C)[C@@H]5CC[C@]43C)[C@@H]12 [Compound 8]", "VAL": "<0.730"}
{"COMPOUND": "C=C(C)[C@@H]1CC[C@]2(C(=O)O)CC[C@]3(C)C(CCC4[C@@]5(C)Cc6c(oc7ccccc67)C(C)(C)C5CC[C@]43C)C12 (stereo partly drawn) [Compound 11]", "VAL": "<0.952"}
{"COMPOUND": "C=C(C)[C@@H]1CC[C@]2(C(=O)O)CC[C@]3(C)[C@H](CC[C@@H]4[C@@]5(C)Cc6c([nH]c7ccccc67)C(C)(C)[C@@H]5CC[C@]43C)[C@@H]12 [Compound 1]", "VAL": 0.669}
{"COMPOUND": "C=C(C)[C@@H]1CC[C@]2(C(=O)NCC(=O)O)CC[C@]3(C)[C@H](CC[C@@H]4[C@@]5(C)Cc6c([nH]c7ccccc67)C(C)(C)[C@@H]5CC[C@]43C)[C@@H]12 [Compound 22]", "VAL": "<0.034"}
{"COMPOUND": "C=C(C)[C@@H]1CC[C@]2(C(=O)O)CC[C@]3(C)[C@H](CC[C@@H]4[C@@]5(C)Cc6c([nH]c7ccc(OC)cc67)C(C)(C)[C@@H]5CC[C@]43C)[C@@H]12 [Compound 10]", "VAL": 0.586}
{"COMPOUND": "CC(C)[C@@H]1CC[C@]2(C(=O)O)CC[C@]3(C)C(CCC4[C@@]5(C)Cc6c(n(C)c7ccccc67)C(C)(C)C5CC[C@]43C)C12 (stereo partly drawn) [Compound 4]", "VAL": ">1.414"}
{"COMPOUND": "C=C(C)[C@@H]1CC[C@]2(C(=O)O)CC[C@]3(C)C(CCC4[C@@]5(C)Cc6c([nH]c7ccc(Cl)cc67)C(C)(C)C5CC[C@]43C)C12 (stereo partly drawn) [Compound 5]", "VAL": 0.391}

For the next question, use this compound.
Please report the measured Specific Index (SI) for cell lines HBL100 for CC(C)[C@@H]1CC[C@]2(C(=O)O)CC[C@]3(C)[C@H](CC[C@@H]4[C@@]5(C)Cc6c([nH]c7ccc(Cl)cc67)C(C)(C)[C@@H]5CC[C@]43C)[C@@H]12 [Compound 6]
<0.951
